Tested on: Mtb H37Rv-WT
Assay: MIC by resazurin microtiter assay (REMA) against Mtb
Format: cell-based
Conditions: Mycobacterium tuberculosis, 144 h, REMA, 37° C., 6 days, read-out: MIC (μM) H37Rv-WT
Each entry below carries its recorded MIC.

INPUT_SMILES: COc1ccc(CN2CC[C@]34OC[C@H](C(C)C)N3C(=O)CC[C@@H]4C2)cc1
MIC: 1 to 10 µM
--
INPUT_SMILES: CC(C)[C@H]1CO[C@]23CCN(Cc4ccc(C(F)(F)F)cc4)C[C@H]2CC(F)(F)C(=O)N13
MIC: < 1 µM
--
INPUT_SMILES: O=C1CC[C@@H]2CN(Cc3ccc(C(F)(F)F)cc3)CC[C@@]23OC[C@H](C(F)(F)F)N13
MIC: > 10 µM
--
INPUT_SMILES: CC(C)[C@H]1CO[C@]23CCN(CCCc4ccc(C(F)(F)F)cc4)C[C@H]2CCC(=O)N13
MIC: < 1 µM
--
INPUT_SMILES: CC(C)[C@H]1CO[C@]23CCN(Cc4ccc(Cl)cc4)C[C@H]2CCC(=O)N13
MIC: < 1 µM
--
INPUT_SMILES: CC(C)[C@H]1CO[C@]23CC(=O)N(Cc4ccc(C(F)(F)F)cc4)C[C@H]2CCC(=O)N13
MIC: > 10 µM
--
INPUT_SMILES: C=CC[C@H]1C[C@@H]2CN(Cc3ccc(C(F)(F)F)cc3)CC[C@@]23OC[C@H](C(C)C)N3C1=O
MIC: > 10 µM
--
INPUT_SMILES: CC(C)[C@H]1CO[C@]23CCN(Cc4ccc(Cl)c(C(F)(F)F)c4)C[C@H]2CCC(=O)N13
MIC: < 1 µM

----------
Tested on: Mtb H37Rv-WT
Assay: MIC by resazurin microtiter assay (REMA) against Mtb
Assay type: cell-based
Details: Mycobacterium tuberculosis, 144 h, REMA, 37° C., 6 days, read-out: MIC (μM) H37Rv-WT
Each item that follows carries a reported MIC.

MOLECULE: O=C1CC[C@@H]2CN(Cc3ccccc3)CC[C@@]23OC[C@H](C2CC2)N13
MIC: > 10 µM
--
MOLECULE: CC(C)[C@H]1CO[C@]23CCN(Cc4ccc5ccccc5n4)C[C@H]2CCC(=O)N13
MIC: < 1 µM
--
MOLECULE: CC(C)[C@H]1CO[C@]23CCN(CC4CCOCC4)C[C@H]2CCC(=O)N13
MIC: > 10 µM
--
MOLECULE: CC(C)[C@H]1CO[C@]23CCN(C4CCCCC4)C[C@H]2CCC(=O)N13
MIC: > 10 µM
--
MOLECULE: CC(C)[C@H]1CO[C@]23CCN(Cc4ccc(N5CCCCC5)cc4)C[C@H]2CCC(=O)N13
MIC: 1 to 10 µM
--
MOLECULE: CC(C)[C@H]1CO[C@]23CCN(CC(F)(F)c4ccc(C(F)(F)F)cc4)C[C@H]2CCC(=O)N13
MIC: < 1 µM
--
MOLECULE: CC(C)[C@H]1CO[C@]23CCN(Cc4ccc(C(F)(F)F)cc4)C[C@H]2CCC(=O)N13
MIC: < 1 µM
--
MOLECULE: CC(C)[C@H]1CO[C@]23CCN(CC4CCCCO4)C[C@H]2CCC(=O)N13 (stereo partly drawn)
MIC: 1 to 10 µM
--
MOLECULE: CC[C@@H]1C[C@@H]2CN(Cc3ccc(C(F)(F)F)cc3)CC[C@@]23OC[C@H](C(C)C)N3C1=O
MIC: < 1 µM

----------
Each entry below carries its recorded MIC.
System: Mtb H37Rv-WT
Experiment: MIC by resazurin microtiter assay (REMA) against Mtb
Assay type: cell-based
Settings: Mycobacterium tuberculosis, 144 h, REMA, 37° C., 6 days, read-out: MIC (μM) H37Rv-WT
MEASUREMENT_NAME: MIC

INPUT_SMILES: CC(C)[C@H]1CO[C@]23CC[C@H](N(Cc4ccc(C(F)(F)F)cc4)Cc4ccc(C(F)(F)F)cc4)C[C@H]2CCC(=O)N13
MEASUREMENT_NAME: MIC
RESULT: < 1 µM

INPUT_SMILES: CC(C)[C@H]1CO[C@]23CCN(C(=O)OCc4ccc(C(F)(F)F)cc4)C[C@H]2CCC(=O)N13
MEASUREMENT_NAME: MIC
RESULT: 1 to 10 µM

INPUT_SMILES: CC(C)[C@H]1CO[C@]23CCN(Cc4ccc(F)cc4)C[C@H]2CCC(=O)N13
MEASUREMENT_NAME: MIC
RESULT: < 1 µM

----------
Target: purified Ndh (Mtb recombinant MBP tagged Ndh-2 enzyme, MBP-Ndh) (Mycobacterium tuberculosis (strain ATCC 25618 / H37Rv))
Sequence (P95160 whole entry, looked up): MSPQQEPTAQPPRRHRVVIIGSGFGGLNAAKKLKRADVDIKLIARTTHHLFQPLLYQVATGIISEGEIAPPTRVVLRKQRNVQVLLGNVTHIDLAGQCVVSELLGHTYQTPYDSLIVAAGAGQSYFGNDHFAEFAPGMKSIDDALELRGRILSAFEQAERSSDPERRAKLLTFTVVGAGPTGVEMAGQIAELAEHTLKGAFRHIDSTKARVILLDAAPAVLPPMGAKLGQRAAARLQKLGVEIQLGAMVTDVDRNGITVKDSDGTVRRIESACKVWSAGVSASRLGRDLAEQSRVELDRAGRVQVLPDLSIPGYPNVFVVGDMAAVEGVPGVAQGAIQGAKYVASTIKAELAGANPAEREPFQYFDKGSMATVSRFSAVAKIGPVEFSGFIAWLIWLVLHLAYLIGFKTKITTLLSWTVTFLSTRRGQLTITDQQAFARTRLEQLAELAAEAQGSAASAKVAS
Experiment: Biochemical evaluation of MBP-Ndh inhibition (NADH oxidation with menadione)

INPUT_SMILES: CC(C)[C@H]1CO[C@]23CCN(Cc4ccccn4)C[C@H]2CCC(=O)N13
IC50: 100 to 1000 nM

----------
Each entry below lists one item and its recorded MIC value.
Tested on: Mtb H37Rv-WT
Assay: MIC by resazurin microtiter assay (REMA) against Mtb
Assay type: cell-based
Conditions: Mycobacterium tuberculosis, 144 h, REMA, 37° C., 6 days, read-out: MIC (μM) H37Rv-WT
MEASUREMENT_NAME: MIC

INPUT_SMILES: O=C1CC[C@@H]2CN(Cc3ccccc3)CC[C@@]23N[C@H]2CCCC[C@@H]2N13
MEASUREMENT_TARGET: Mtb H37Rv-WT
RESULT: > 10 µM
--
INPUT_SMILES: CC(C)[C@H]1CO[C@]23CCN(C(=O)OCCCc4ccc(C(F)(F)F)cc4)C[C@H]2CCC(=O)N13
MEASUREMENT_TARGET: Mtb H37Rv-WT
RESULT: 1 to 10 µM
--
INPUT_SMILES: Cc1ccc(CN2CC[C@]34OC[C@H](C(C)C)N3C(=O)CC[C@@H]4C2)cc1
MEASUREMENT_TARGET: Mtb H37Rv-WT
RESULT: 1 to 10 µM
--
INPUT_SMILES: CC(C)[C@H]1CO[C@]23CCN(C(=O)Cc4ccccc4)C[C@H]2CCC(=O)N13
MEASUREMENT_TARGET: Mtb H37Rv-WT
RESULT: > 10 µM
--
INPUT_SMILES: CC(C)(C)[C@H]1CO[C@]23CCN(Cc4ccccc4)C[C@H]2CCC(=O)N13
MEASUREMENT_TARGET: Mtb H37Rv-WT
RESULT: > 10 µM
--
INPUT_SMILES: CC(C)[C@H]1CO[C@]23CCN(Cc4ccccc4)C[C@H]2CCC(=S)N13
MEASUREMENT_TARGET: Mtb H37Rv-WT
RESULT: 1 to 10 µM
--
INPUT_SMILES: CC(C)[C@H]1CO[C@]23CCN(C(=O)OCc4ccccc4)C[C@H]2CCC(=O)N13
MEASUREMENT_TARGET: Mtb H37Rv-WT
RESULT: 1 to 10 µM
--
INPUT_SMILES: CC(C)[C@H]1CO[C@]23CCN(Cc4ccc(OC(F)(F)F)cc4)C[C@H]2CCC(=O)N13
MEASUREMENT_TARGET: Mtb H37Rv-WT
RESULT: < 1 µM
--
INPUT_SMILES: CC(C)[C@H]1CO[C@]23CCN(Cc4ccc(-c5ccccc5)cc4)C[C@H]2CCC(=O)N13
MEASUREMENT_TARGET: Mtb H37Rv-WT
RESULT: < 1 µM
--
INPUT_SMILES: Cc1c(CN2CC[C@]34OC[C@H](C(C)C)N3C(=O)CC[C@@H]4C2)[nH]c2ccccc12
MEASUREMENT_TARGET: Mtb H37Rv-WT
RESULT: < 1 µM
--
INPUT_SMILES: CC(C)C[C@@H]1C[C@@H]2CN(Cc3ccc(C(F)(F)F)cc3)CC[C@@]23OC[C@H](C(C)C)N3C1=O
MEASUREMENT_TARGET: Mtb H37Rv-WT
RESULT: > 10 µM
--
INPUT_SMILES: CC(C)[C@H]1CO[C@]23CCN(c4ccccc4)C[C@H]2CCC(=O)N13
MEASUREMENT_TARGET: Mtb H37Rv-WT
RESULT: 1 to 10 µM
--
INPUT_SMILES: CC(C)[C@H]1CO[C@]23CCN(CC4CCCCC4)C[C@H]2CCC(=O)N13
MEASUREMENT_TARGET: Mtb H37Rv-WT
RESULT: < 1 µM
--
INPUT_SMILES: CC(C)[C@H]1CO[C@]23CCN(Cc4ccc(C(F)(F)F)nc4)C[C@H]2CCC(=O)N13
MEASUREMENT_TARGET: Mtb H37Rv-WT
RESULT: < 1 µM
--
INPUT_SMILES: CC(C)[C@H]1CO[C@]23CCN(Cc4ccc(N5CCC(c6ccc(OC(F)(F)F)cc6)CC5)cc4)C[C@H]2CCC(=O)N13
MEASUREMENT_TARGET: Mtb H37Rv-WT
RESULT: < 1 µM
--
INPUT_SMILES: CC(C)[C@H]1CO[C@]23CCN(Cc4cc5ccccc5n4C)C[C@H]2CCC(=O)N13
MEASUREMENT_TARGET: Mtb H37Rv-WT
RESULT: < 1 µM
--
INPUT_SMILES: CC(C)[C@H]1CO[C@]23CCN(Cc4nccn4C)C[C@H]2CCC(=O)N13
MEASUREMENT_TARGET: Mtb H37Rv-WT
RESULT: 1 to 10 µM
--
INPUT_SMILES: CC(C)[C@H]1CO[C@]23CCN(Cc4cc(C(F)(F)F)nc5ccccc45)C[C@H]2CCC(=O)N13
MEASUREMENT_TARGET: Mtb H37Rv-WT
RESULT: < 1 µM
--
INPUT_SMILES: CC(C)[C@H]1CO[C@]23CCN(Cc4ccccc4)C[C@H]2CC(=O)N13
MEASUREMENT_TARGET: Mtb H37Rv-WT
RESULT: 1 to 10 µM
--
INPUT_SMILES: CC(C)[C@H]1CO[C@]23CCN(CCc4ccccc4)C[C@H]2CCC(=O)N13
MEASUREMENT_TARGET: Mtb H37Rv-WT
RESULT: 1 to 10 µM
--
INPUT_SMILES: CC(C)[C@H]1CO[C@]23CCN(Cc4ccc(C(F)(F)F)cc4)C(=O)[C@H]2CCC(=O)N13
MEASUREMENT_TARGET: Mtb H37Rv-WT
RESULT: > 10 µM
--
INPUT_SMILES: CC(C)[C@H]1CO[C@]23CCN(C(=O)C(F)(F)c4ccc(C(F)(F)F)cc4)C[C@H]2CCC(=O)N13
MEASUREMENT_TARGET: Mtb H37Rv-WT
RESULT: > 10 µM
--
INPUT_SMILES: CC(C)[C@H]1CO[C@]23CCN(Cc4cc(C5CC5)nc5ccccc45)C[C@H]2CCC(=O)N13
MEASUREMENT_TARGET: Mtb H37Rv-WT
RESULT: < 1 µM
--
INPUT_SMILES: CC(C)[C@H]1CO[C@]23CCN(C(=O)Cc4ccc(C(F)(F)F)cc4)C[C@H]2CCC(=O)N13
MEASUREMENT_TARGET: Mtb H37Rv-WT
RESULT: > 10 µM
--
INPUT_SMILES: CC(C)[C@H]1CO[C@]23CC[C@H](NCc4ccc(C(F)(F)F)cc4)C[C@H]2CCC(=O)N13
MEASUREMENT_TARGET: Mtb H37Rv-WT
RESULT: < 1 µM
--
INPUT_SMILES: CC(C)[C@H]1CO[C@]23CCN(Cc4ccc(C(F)(F)F)cc4)C[C@H]2C[C@@H](C)C(=O)N13
MEASUREMENT_TARGET: Mtb H37Rv-WT
RESULT: < 1 µM
--
INPUT_SMILES: CC(C)[C@H]1CO[C@]23CC[C@@H](N(Cc4ccc(C(F)(F)F)cc4)Cc4ccc(C(F)(F)F)cc4)C[C@H]2CCC(=O)N13
MEASUREMENT_TARGET: Mtb H37Rv-WT
RESULT: < 1 µM
--
INPUT_SMILES: CC(C)[C@H]1CO[C@]23CCN(C(=O)OCCc4ccc(C(F)(F)F)cc4)C[C@H]2CCC(=O)N13
MEASUREMENT_TARGET: Mtb H37Rv-WT
RESULT: 1 to 10 µM
--
INPUT_SMILES: CC(C)[C@H]1CCO[C@]23CCN(Cc4ccc(C(F)(F)F)cc4)C[C@H]2CCC(=O)N13
MEASUREMENT_TARGET: Mtb H37Rv-WT
RESULT: 1 to 10 µM
--
INPUT_SMILES: CC(C)[C@H]1CO[C@]23CCN(Cc4ccc(Cl)c(Cl)c4)C[C@H]2CCC(=O)N13
MEASUREMENT_TARGET: Mtb H37Rv-WT
RESULT: < 1 µM
--
INPUT_SMILES: CC(C)[C@H]1CO[C@]23CCN(CCc4ccc(C(F)(F)F)cc4)C[C@H]2CCC(=O)N13
MEASUREMENT_TARGET: Mtb H37Rv-WT
RESULT: < 1 µM
--
INPUT_SMILES: CC(C)[C@H]1CO[C@]23CCN(Cc4ccc(C(F)(F)F)cc4)C[C@H]2OCC(=O)N13
MEASUREMENT_TARGET: Mtb H37Rv-WT
RESULT: 1 to 10 µM
--
INPUT_SMILES: CC[C@H]1C[C@@H]2CN(Cc3ccc(C(F)(F)F)cc3)CC[C@@]23OC[C@H](C(C)C)N3C1=O
MEASUREMENT_TARGET: Mtb H37Rv-WT
RESULT: > 10 µM
--
INPUT_SMILES: C=C[C@H]1CO[C@]23CCN(Cc4ccc(C(F)(F)F)cc4)C[C@H]2CCC(=O)N13
MEASUREMENT_TARGET: Mtb H37Rv-WT
RESULT: > 10 µM
--
INPUT_SMILES: CC(C)[C@H]1CO[C@]23CCN(Cc4cccc5cccnc45)C[C@H]2CCC(=O)N13
MEASUREMENT_TARGET: Mtb H37Rv-WT
RESULT: 1 to 10 µM
